All values here come from patent US20080242663A1.

- tgt: recombinant EphB4 (Homo sapiens, UniProt P54760)
- Construct: amino acids 563-987; Swiss-Prot Acc; No. P54760
- experiment summary: In vitro EphB4 enzyme assay (Alphascreen)
- Method: This assay detects inhibitors of EphB4-mediated phosphorylation of a polypeptide substrate using Alphascreen™ luminescence detection technology. […] The signal intensity is directly proportional to the level of substrate phosphorylation and thus inhibition is measured by a decrease in signal. […] The resulting assay signal was determined on the Perkin Elmer EnVision plate reader. […]
recorded endpoint: pIC50
Remember the convention: pIC50 equals -log10 of concentration in molar.

{"columns": ["compound string", "recorded endpoint", "assay value"],
 "data": [
  ["CN(c1ccnc(Nc2cc(N3CCOCC3)cc(N3CCOCC3)c2)n1)c1cccc(F)c1F", "pIC50", 6.43],
  ["COCCN(C)C(=O)c1cc(Nc2nccc(N(C)c3cccc(Cl)c3)n2)cc(N2CCOCC2)c1", "pIC50", 6.24]
]}

Lab note: COc1cccc(C)c1N(C)c1ccnc(Nc2cc(N3CCOCC3)cc(N3CCOCC3)c2)n1 gave pIC50 of 7.11

* * *

- tgt: recombinant EphB4 (Homo sapiens, UniProt P54760)
- Construct: amino acids 563-987; Swiss-Prot Acc; No. P54760
- Sequence (P54760 563-987): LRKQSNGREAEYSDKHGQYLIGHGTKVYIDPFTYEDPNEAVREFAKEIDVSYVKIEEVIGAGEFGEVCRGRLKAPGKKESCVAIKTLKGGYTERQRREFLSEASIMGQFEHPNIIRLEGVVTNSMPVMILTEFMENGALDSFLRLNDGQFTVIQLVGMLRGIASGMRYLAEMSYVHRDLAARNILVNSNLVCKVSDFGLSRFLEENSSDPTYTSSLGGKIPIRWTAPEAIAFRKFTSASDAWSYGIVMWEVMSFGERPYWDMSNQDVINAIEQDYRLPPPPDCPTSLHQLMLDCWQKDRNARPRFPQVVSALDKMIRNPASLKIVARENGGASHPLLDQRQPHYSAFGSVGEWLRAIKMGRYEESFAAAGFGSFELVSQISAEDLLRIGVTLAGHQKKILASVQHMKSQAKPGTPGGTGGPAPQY
- experiment summary: In vitro EphB4 enzyme assay (Alphascreen)
pIC50: −log10 of the molar value.
Param threshold (7) applies to pIC50; output y when value >= threshold, n when value < threshold.

// below: answered compounds
{"columns": ["compound string", "classification"],
 "data": [
  ["Cc1ccc(CO)cc1N(C)c1ccnc(Nc2cc(OCC(C)C)cc(N3CCOCC3)c2)n1", "n"],
  ["CN(c1ccnc(Nc2cc(CN3CCCC3)cc(N3CCOCC3)c2)n1)c1ccc(F)c(Cl)c1F", "y"]
]}

Ask: Evaluate CCNC(=O)c1cc(Nc2nccc(N(C)c3cccc(Cl)c3)n2)cc(N2CCOCC2)c1 : pIC50 at minimum 7?
Reply: n

Ask: Does CN(c1cccc(F)c1)c1ccnc(Nc2cc(N3CCOCC3)cc(N3CCOCC3)c2)n1 have a reported pIC50 of at least 7?
Reply: n

Ask: Determine whether this compound has pIC50 no lower than 7: Cc1ccc(CO)cc1N(C)c1ccnc(Nc2cc(C(=O)NCC(C)C)cc(N3CCOCC3)c2)n1
Reply: n
